# TARGET: P. falciparum apicoplast DNA polymerase (Pf-apPOL) (Plasmodium falciparum)
# Sequence (Q8ILY1 entry or part of it): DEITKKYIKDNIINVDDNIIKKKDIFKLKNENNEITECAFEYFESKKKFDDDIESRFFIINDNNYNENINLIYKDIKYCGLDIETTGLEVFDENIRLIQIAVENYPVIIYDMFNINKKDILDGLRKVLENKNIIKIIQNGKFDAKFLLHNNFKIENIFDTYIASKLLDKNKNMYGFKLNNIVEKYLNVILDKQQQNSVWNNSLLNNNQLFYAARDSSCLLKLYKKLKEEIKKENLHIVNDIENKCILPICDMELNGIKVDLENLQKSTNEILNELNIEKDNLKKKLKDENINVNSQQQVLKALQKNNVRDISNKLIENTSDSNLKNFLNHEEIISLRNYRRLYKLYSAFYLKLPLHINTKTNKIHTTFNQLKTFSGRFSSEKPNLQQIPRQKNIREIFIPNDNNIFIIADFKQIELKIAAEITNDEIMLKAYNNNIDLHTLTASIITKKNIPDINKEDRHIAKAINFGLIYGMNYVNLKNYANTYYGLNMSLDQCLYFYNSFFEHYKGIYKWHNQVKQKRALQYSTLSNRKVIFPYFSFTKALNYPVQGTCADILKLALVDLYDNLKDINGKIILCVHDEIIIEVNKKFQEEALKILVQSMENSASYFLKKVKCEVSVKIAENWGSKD
# MEASUREMENT_NOTES: Fluorescence-based high-throughput DNA polymerase assay (molecular beacon), primary screen and dose-response;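 also: test concentration in µM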
# Type: biochemical
# CONDITION_INFO: DRC-2; 90'; concentration 80
READOUT_LABEL: % inhibition ApPOL 90'
Answer by giving the amount and then stating its unit.

Return % inhibition ApPOL 90' measured with P. falciparum apicoplast DNA polymerase (Pf-apPOL) (Plasmodium falciparum) given this compound: `Cc1ccc(CCNC(=O)c2cnn3c(O)c(Cc4ccccc4F)c(C)nc23)cc1`
72%

Also, `COc1ccc(-c2n[nH]cc2Oc2ccc(Cl)cc2)c(O)c1` please.
74%

Also, `O=C1Nc2ccc(I)cc2C1=Cc1cc(Br)c(O)c(Br)c1` please.
76%

Also, `O=C(CSc1nnc(-c2ccncc2)[nH]1)c1ccc(O)c(O)c1` please.
80%

Also, COc1ccc(C2CC(c3ccc(Cl)cc3Cl)Nc3nc(N)nn32)cc1OC (centres unmarked) please.
52%

# credit: paper PMC9090415
